Origin of the recorded values: PubChem BioAssay (NCI)

test system: EKVX NSCLC; assay: NCI tumour cell line growth inhibition, 48 h

# compound, TGI
measured = [
    ("Cc1ccc(-c2nc3nc(-c4ccccc4)nc(N4CCNCC4)c3o2)cc1", "3.24 µM"),
    ("CN(Cc1cnc2c(N)nc(N)nc2n1)c1ccc(Cl)cc1", "> 100 µM"),
    ("COc1cc(/C=C/C(=O)c2ccc(F)cc2)ccc1OCCCN1CCN(CC(=O)Nc2ccc(Cl)cc2C(=O)c2ccccc2Cl)CC1", "> 100 µM"),
    ("CC(C)N(C(C)C)S(=O)(=O)C[C@]12CC[C@H](CC13OCC(CS(=O)(=O)c1ccccc1)O3)C2(C)C (some centres not stated)", "> 100 µM"),
    ("C[C@@H]1CC[C@@]2(OC1)O[C@H]1C[C@H]3[C@@H]4CC[C@H]5C[C@@H](OC6OC(CO)C(OC7OC(CO)C(O)C(OC8OCC(O)C(O)C8O)C7OC7OC(CO)C(O)C(O)C7O)C(O)C6O)[C@H](O)C[C@]5(C)[C@H]4CC[C@]3(C)[C@H]1[C@@H]2C (some centres not stated)", "21 µM"),
    ("CC1(C)[C@@H]2C[C@H]1c1cnc(-c3ccccn3)cc1C2CCCCC[C@@H]1c2cc(-c3ccccn3)ncc2[C@@H]2C[C@H]1C2(C)C (some centres not stated)", "> 100 µM"),
    ("c1ccc([I+]c2ccccc2)cc1", "> 100 µM"),
]

* * *

The reader will find reported TGI values listed item by item below.
system: OVCAR-3 ovarian; assay: NCI tumour cell line growth inhibition, 48 h
Where a SMILES comes first, the peptide text is derived from it. [ ]: non-standard residue; d: D form.

# compound, readout_relation, TGI, µM
records = [
    ("COc1cc2c(cc1OC)[C@@H](Nc1ccc(F)cc1)C1COC(=O)[C@@H]1C2c1cc(OC)c(O)c(OC)c1 (some centres undefined)", ">", 100),
    ("COc1ccccc1CNCCCN1C(=O)c2ccc3c4c(ccc(c24)C1=O)C(=O)N(CCCN)C3=O", "=", 1.06),
    ("CCn1cnnc1-c1nsc2ccccc12", ">", 100),
    ("CC(C)C[C@H](NC(=O)[C@H](CC(C)C)NC(=O)[C@@H](Cc1c[nH]c2ccccc12)NC(=O)[C@H](Cc1ccccc1)NC(=O)[C@@H](Cc1c[nH]c2ccccc12)NC(=O)[C@H](CCC(N)=O)NC(=O)[C@H](CCC(N)=O)NC(=O)[C@H]1CCCN1C(=O)[C@@H](N)CCCCN)C(N)=O (H-K[dP]QQ[dW]F[dW]LL-NH2)", ">", 100),
    ("COc1cnc2c(c1)C(=O)c1c-2n(CCCNC2=NCCS2)c(=O)c2cc(Cl)ccc12", "=", 3.07),
    ("COc1cccc(NC(=O)CC(=O)N2N=C(n3ccc4ccccc43)CC2c2ccccc2)c1 (centres undefined)", ">", 100),
    ("O=C(OCCNC(=O)N1CC1)OCCNC(=O)N1CC1", ">", 10),
    ("CC(Oc1ccc(OCC2CCCCC2)cc1)C(=O)NCc1ccco1 (centres undefined)", ">", 100),
    ("Cn1cccc1-c1cc(-c2ccc(Br)cc2)[nH]c(=O)c1C#N", ">", 100),
    ("CC(C)CCNCC(O)Cn1c2ccccc2c2ccccc21 (centres undefined)", "=", 26.8),
    ("Cc1cnc2[nH]c(-c3ccc4ccccc4c3)cc(=O)c2c1", "=", 10.6),
    ("CN(C)CC1CCC2=C(C1=O)C(c1ccc(Cl)c(Cl)c1)C1=C(CCC(CN(C)C)C1=O)O2 (centres undefined)", "=", 5.89),
    ("O=C(O)C(CS)NCc1c2ccccc2nc2ccccc12 (centres undefined)", ">", 100),
    ("CCN(CC)c1oc(N(CC)CC)c(C(=O)Nc2ccccn2)c(=O)c1C(C)=O", ">", 100),
    ("O=C1CC(NCc2ccccc2)c2c(Cl)sc(Cl)c21 (centres undefined)", "=", 47.3),
    ("Nc1c(C(=O)c2cccc(-c3cccnc3)c2)cnn1-c1ccc(F)cc1F", ">", 25),
    ("CCC[CH2][Sn]1([CH2]CCC)[O]C2C(CO)OC(n3ccc(N)nc3=O)C2[O]1 (centres undefined)", "=", 2.94),
    ("CCc1cccc(C)c1NC(=O)C1=C(C)NC(C)=C(C(=O)Nc2c(C)cccc2CC)C1c1ccc2c(c1)OCO2", "=", 39.8),
    ("CC1=C(CCC(C)NCc2ccc(OCCCN3CCCCC3)cc2)C(C)(C)CCC1 (centres undefined)", "=", 4.07),
]
